Origin of the recorded values: the supplement of paper PMC10065799

Tested on: c-Src;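 note: frequency after pTyr selection over input frequency; kinase dosed for 20-30% of maximal phosphorylation in three min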
Assay: phosphorylation enrichment, bacterial display (enrichment ratio); higher = better substrate or ligand; peptides without Tyr show the background
Known phosphorylation enrichment of a selection of sequences
quantity_kind: phosphorylation enrichment

sequence: FIGVTYKNEED [PDGFRA_Y993_YF]
val: 0.491
--
sequence: DEEPPYRGPFC [SASH1_Y551]
val: 0.493
--
sequence: ELAKFYKLHHI [AK7_Y391_N389K_YF]
val: 0.505

###

System: c-Src;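 note: 11-residue human phosphosite peptides and single-mutation variants displayed on the E. coli surface, counted by deep sequencing, each peptide's frequency after selection divided by its frequency in the unselected input library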;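 note: frequency after pTyr selection over input frequency; kinase dosed for 20-30% of maximal phosphorylation in three min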
Experiment: phosphorylation enrichment, bacterial display (enrichment ratio); higher = better substrate or ligand; peptides without Tyr show the background
Known phosphorylation enrichment of a selection of sequences
quantity_kind: phosphorylation enrichment

sequence: SFHSSYSEIKD [DCLRE1C_Y322]
val: 0.506
--
sequence: ASYGPYTRVQS [FOXL2_Y258]
val: 0.559
--
sequence: FDDDDYDTDFV [BLM_Y296]
val: 0.494
--
sequence: KILGRYYETGS [PAX2_Y72]
val: 0.504
--
sequence: QRAADYYSQQM [GBP6_Y333]
val: 0.524
--
sequence: SSEFHYVGGFF [CTSC_Y347_YF]
val: 0.707
--
sequence: NLDRFYQQVTK [SEC16A_Y1041]
val: 0.498
--
sequence: MTRDIYRASYY [ALK_Y1278_A1274T]
val: 1.66
--
sequence: AFEQQYSPIPK [NOX1_Y373_R378K]
val: 0.802
--
sequence: KGVDRYNPENL [EIF3K_Y21_I18V]
val: 0.397
--
sequence: VATRWYRSPEP [CDKL5_Y177_L182P]
val: 0.394
--
sequence: WQQQSYLFSGI [CTNNB1_Y30_D32Y_YF]
val: 0.467
--
sequence: DYYDLYGGEKL [PTPN11_Y66_F71L]
val: 5.5
--
sequence: RASQEYHIVKK [PDZD2_Y557_S552R]
val: 0.643
--
sequence: AADGRYEVLFL [SEMA3F_Y478]
val: 0.489
--
sequence: TEDPEYDVQSK [PTCHD3_Y335]
val: 0.435
--
sequence: MFQVQYNSSVD [LRFN1_Y458_YF]
val: 0.373
--
sequence: QGLRLYRTHLA [BTK_Y617_P619T]
val: 0.312
--
sequence: MSRDVYSTDCF [NTRK2_Y702_Y706C_YF]
val: 2.4
--
sequence: KKLAEYGPQGR [CLCA1_Y147]
val: 0.358
--
sequence: HGEAVYSRDCV [XPC_Y676_R671H]
val: 3.78
--
sequence: KKLEVYQSIAD [MYBPC3_Y548]
val: 0.798
--
sequence: SLEKSYELPDG [ACTA1_Y242]
val: 0.479
--
sequence: PRDSGYSYETI [MAP1B_Y1921_S1917R]
val: 0.467
--
sequence: IRGNMYYENSY [EGFR_Y112]
val: 0.526
--
sequence: ESDFPYSSSFE [SRPK2_Y427_T426P_YF]
val: 0.823
--
sequence: AESPEHVHMFT [FAM111A_Y511_Y511H_YF]
val: 0.36
--
sequence: APGDAYGDAGF [SYP_Y250_YF]
val: 0.464
--
sequence: FDDIAYIRKNL [PIK3CA_Y1021_T1025N]
val: 0.379
--
sequence: EKMWSYTKSAE [GRIA3_Y705_M706T]
val: 0.464
--
sequence: TRSFKYLLLSM [NF1_Y491_YF]
val: 0.426
--
sequence: LYSINYLHFGD [KDM4C_Y201_E206D]
val: 3.68
--
sequence: FESPRYLQVHI [FANCA_Y488]
val: 0.411
--
sequence: TTANRYLKVSD [MYOM2_Y871]
val: 0.486
